// provenance: patent US20240246946A1

- system: full length mouse TREX1 (Mus musculus, UniProt Q91XB0)
- Construct: N-terminally His-Tev tagged full length mouse TREX1; made in house; host or cells: E. coli
- Sequence (Q91XB0 whole entry): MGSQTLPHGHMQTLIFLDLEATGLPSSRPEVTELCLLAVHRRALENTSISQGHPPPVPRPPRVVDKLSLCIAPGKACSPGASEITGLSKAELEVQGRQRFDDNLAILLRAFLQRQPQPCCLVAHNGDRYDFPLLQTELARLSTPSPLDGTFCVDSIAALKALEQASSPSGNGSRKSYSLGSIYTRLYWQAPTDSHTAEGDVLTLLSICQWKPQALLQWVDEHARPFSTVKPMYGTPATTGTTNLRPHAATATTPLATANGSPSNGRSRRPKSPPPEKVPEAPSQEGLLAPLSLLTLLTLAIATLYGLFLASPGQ
- test.description: mTREX1 Biochemical Assay (fluorescence, dsDNA substrate degradation)
- experimental.context: biochemical, read-out: mTREX1 IC50
Recorded IC50, one value per entry.

Illustrative cases are given below, each with its answer.
CC(c1nc(C(=O)Nc2cnoc2)c(O)c(=O)n1C)C(c1cnc(C(F)(F)F)cn1)c1ccccc1C#N (single isomer, unassigned) [Example 118 D1E2]: > 10 nM
Cc1cnc(C(c2cc(F)ccc2C#N)C(C)c2nc(C(=O)Nc3cnoc3)c(O)c(=O)n2C)cn1 (single isomer, unassigned) [Example 115 D1E1]: > 10 nM
CC(c1nc(C(=O)Nc2cnoc2)c(O)c(=O)n1C)C(c1cnn(CC(C)(C)O)c1)c1ccccc1C#N (single isomer, unassigned) [Example 36 D2E2]: > 10 nM

Record Cc1nn(C)cc1C(c1ccc(F)cc1C#N)C(C)c1nc(C(=O)Nc2cnoc2)c(O)c(=O)n1C (single isomer, unassigned) [Example 56 D1E1] . Reported IC50: < 1 nM

Record COCCCn1cc(C(c2ccccc2C#N)C(C)c2nc(C(=O)Nc3cnoc3)c(O)c(=O)n2C)cn1 (single isomer, unassigned) [Example 24 D2E2] . Reported IC50: > 10 nM

Record CC(c1nc(C(=O)Nc2cnoc2)c(O)c(=O)n1C)C(c1cnn(CCN2CCNCC2)c1)c1ccccc1C#N (single isomer, unassigned) [Example 31 D2E2] . Reported IC50: > 10 nM
